system: Ovarian 2393A tumor initiating cells; experiment: Tumor-initiating cell growth inhibition, Alamar Blue assay, ovarian TICs; type: cell-based; details: 144 h; Ovarian 2393A TICs, 6 days; read-out: Tumor Initiating Cell GI50 Range Ovarian 2393A
quantity name: GI50

molecule	result
Cc1cc(-c2cnn3c(NCC4CCOCC4)cc(N[C@H](CO)C4CCCC4)nc23)ccc1C(=O)NC1CC1	100 to 500 nM
Cc1cc(-c2cnn3c(NCCN4CCOCC4)nc(Oc4cccc(F)c4F)nc23)ccc1C(=O)NC1CC1	≤ 100 nM
Cc1cc(-c2cnn3c(NCCN4CCC(O)CC4)cc(Oc4cccc(F)c4)nc23)ccc1C(=O)NC1CC1	≤ 100 nM
Cc1cc(-c2cnn3c(NCC4COC4)cc(N[C@H]4CCCC[C@H]4O)nc23)ccc1C(=O)NC1CC1	≤ 100 nM
Cc1cc(-c2cnn3c(NCC4CCOCC4)cc(N[C@H](CO)CC(C)C)nc23)ccc1C(=O)NC1CC1	≤ 100 nM
Cc1cc(-c2cnn3c(NCC4CCOCC4)nc(Oc4cccc(F)c4)nc23)ccc1C(=O)NC1CC1	≤ 100 nM
Cc1cc(-c2cnn3c(NCC4CCOCC4)cc(OC4CCN(C5COC5)C4)nc23)ccc1C(=O)NC1CC1 (stereo not shown)	100 to 500 nM
